Listing: pIC50 of selected compounds
Target: full length N-terminally FLAG-tagged PARP1 (Homo sapiens, UniProt P09874)
Sequence (P09874 whole entry): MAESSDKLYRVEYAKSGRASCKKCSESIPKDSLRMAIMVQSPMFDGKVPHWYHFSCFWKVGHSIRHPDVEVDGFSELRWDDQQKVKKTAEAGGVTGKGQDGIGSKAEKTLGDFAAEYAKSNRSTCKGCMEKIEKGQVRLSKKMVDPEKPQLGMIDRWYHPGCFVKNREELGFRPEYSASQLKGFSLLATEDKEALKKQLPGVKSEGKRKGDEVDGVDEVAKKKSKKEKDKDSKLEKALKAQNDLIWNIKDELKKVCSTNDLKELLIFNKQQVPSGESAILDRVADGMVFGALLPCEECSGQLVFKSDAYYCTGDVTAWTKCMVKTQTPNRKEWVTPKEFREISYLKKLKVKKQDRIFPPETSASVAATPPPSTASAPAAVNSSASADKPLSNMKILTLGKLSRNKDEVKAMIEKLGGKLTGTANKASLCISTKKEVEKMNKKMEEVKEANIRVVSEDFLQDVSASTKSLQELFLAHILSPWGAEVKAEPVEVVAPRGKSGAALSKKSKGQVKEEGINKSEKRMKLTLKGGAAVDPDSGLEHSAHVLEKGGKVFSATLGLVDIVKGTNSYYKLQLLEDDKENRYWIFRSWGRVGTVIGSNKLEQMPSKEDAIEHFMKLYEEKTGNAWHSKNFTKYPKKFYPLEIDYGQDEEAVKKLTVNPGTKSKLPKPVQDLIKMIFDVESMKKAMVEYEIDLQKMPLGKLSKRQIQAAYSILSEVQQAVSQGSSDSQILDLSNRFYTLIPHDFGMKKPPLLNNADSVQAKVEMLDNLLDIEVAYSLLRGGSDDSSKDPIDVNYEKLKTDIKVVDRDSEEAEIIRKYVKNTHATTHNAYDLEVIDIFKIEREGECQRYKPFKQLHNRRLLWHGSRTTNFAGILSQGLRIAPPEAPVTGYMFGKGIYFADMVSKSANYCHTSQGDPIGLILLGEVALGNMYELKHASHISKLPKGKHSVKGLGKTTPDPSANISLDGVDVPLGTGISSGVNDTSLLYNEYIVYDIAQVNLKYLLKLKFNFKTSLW
Experiment: PARP1 biochemical DELFIA assay (auto-PARylation)
Parameters: recombinant full length human N-terminally FLAG-tagged PARP1
Conditions: binned IC50, PARP1 biochemical DELFIA assay
pIC50: −log10 of the molar value.

# compound, pIC50
rows = [
    ("CNC(=O)c1cc(C)c(N2CCC(N3CCC(c4cc5ccccc5c(=O)[nH]4)C3)CC2)cn1 (racemic) [Compound 195rac]", "> 8.00"),
]

Problem: Looking for the measured pIC50 of CNC(=O)c1ccc(N2CCC(N3CCCC(c4nc5ncccc5c(=O)[nH]4)C3)CC2)cn1 (single isomer, unassigned) [Compound 98b] , can you help?
Solution: 6.00 to 7.00

Problem: Looking for the measured pIC50 of CNC(=O)c1ccc(N2CCC(N3CCC(c4ccc(OC)c(=O)[nH]4)C3)CC2)c(C(F)(F)F)n1 (single isomer, unassigned) [Compound 152b] , can you help?
Solution: 7.00 to 8.00

Problem: Looking for the measured pIC50 of CNC(=O)c1ccc(N2CCC(N3CCCC(c4ncc(CC(F)(F)F)c(=O)[nH]4)C3)CC2)cn1 (single isomer, unassigned) [Compound 212b] , can you help?
Solution: < 5.00

Problem: Looking for the measured pIC50 of CCc1cnc(-c2ccn(C3CCN(c4ccc(C(=O)NC)nc4)CC3)n2)[nH]c1=O [Compound 25] , can you help?
Solution: 6.00 to 7.00

Problem: Looking for the measured pIC50 of COCCNC(=O)c1ccc(N2CCC(N3CCCC(c4nc5ccccc5c(=O)[nH]4)C3)CC2)cn1 (single isomer, unassigned) [Compound 116b] , can you help?
Solution: 6.00 to 7.00

* * *

Target: full length N-terminally FLAG-tagged PARP1 (Homo sapiens, UniProt P09874)
Assay: PARP1 biochemical DELFIA assay (auto-PARylation)
Parameters: recombinant full length human N-terminally FLAG-tagged PARP1
Settings: binned IC50, PARP1 biochemical DELFIA assay
pIC50: −log10 of the molar value.
test readout: pIC50

# molecule, target, endpoint value
data = [
    ("CNC(=O)c1cnc(N2CCC(N3CCCC(c4nc5ccccc5c(=O)[nH]4)C3)CC2)cn1 (single isomer, unassigned) [Compound 99b]", "full length N-terminally FLAG-tagged PARP1 (Homo sapiens, UniProt P09874)", "7.00 to 8.00"),
    ("CNC(=O)c1ccc(N2CCC(N3CCC(c4nc5ccccc5c(=O)[nH]4)C3)CC2)c(C(F)F)n1 (single isomer, unassigned) [Compound 158a]", "full length N-terminally FLAG-tagged PARP1 (Homo sapiens, UniProt P09874)", "> 8.00"),
    ("CNC(=O)c1ccc(N2CCC(CN3CCC(c4nc5ccccc5c(=O)[nH]4)CC3)C2)cn1 (single isomer, unassigned) [Compound 50a]", "full length N-terminally FLAG-tagged PARP1 (Homo sapiens, UniProt P09874)", "7.00 to 8.00"),
    ("CNC(=O)c1ccc(N2CC(N3CCCC(c4nc5ccccc5c(=O)[nH]4)CC3)C2)cn1 (single isomer, unassigned) [Compound 145a]", "full length N-terminally FLAG-tagged PARP1 (Homo sapiens, UniProt P09874)", "> 8.00"),
    ("O=c1[nH]c(C2CCCN(C3CCC(F)(F)CC3)C2)nc2ccccc12 (single isomer, unassigned) [Compound 3a]", "full length N-terminally FLAG-tagged PARP1 (Homo sapiens, UniProt P09874)", "6.00 to 7.00"),
]

We next turn to a different molecule, shown below.
Problem: Looking for the measured pIC50 of CNC(=O)c1ccc(N2CCC(N3CCCC(c4nc5onc(C)c5c(=O)[nH]4)C3)CC2)cn1 (single isomer, unassigned) [Compound 159b] , can you help?
Solution: 6.00 to 7.00
